Tested on: Escherichia coli
Test: Antibacterial activity against ampicillin/ciprofloxacin/gentamicin/tetracycline-resistant Escherichia coli 555 assessed as growth inhibition after 18 to 24 hrs by broth microdilution method
Assay type: functional
assay-metric: MIC90 (µg/mL)
# output: bare number, implied unit µg/mL

Previously resolved entries follow.
{"chem-smiles": "CCCN1CCN(c2ccc3nc(-c4ccc5nc(-c6ccc(OCC)cc6)[nH]c5c4)[nH]c3c2)CC1", "assay-metric": "MIC90", "reported-measurement": 6.8}
{"chem-smiles": "COc1ccc(-c2nc3ccc(-c4nc5ccc(N6CCN(c7ncccn7)CC6)cc5[nH]4)cc3[nH]2)cc1OC", "assay-metric": "MIC90", "reported-measurement": 59.4}

Return the recorded MIC90 value; entry: COc1ccc(-c2nc3ccc(-c4nc5ccc(N6CCN(c7ccncc7)CC6)cc5[nH]4)cc3[nH]2)cc1OC
58.6

Determine from records and report MIC90 for CCOc1ccc(-c2nc3ccc(-c4nc5ccc(N6CCN(CC)CC6)cc5[nH]4)cc3[nH]2)cc1
13.9

Return MIC90 (reported value) for this molecule: CCCN1CCN(c2ccc3nc(-c4ccc5nc(-c6ccc(OC)c(OC)c6)[nH]c5c4)[nH]c3c2)CC1
29.8

Input CCOc1ccc(-c2nc3ccc(-c4nc5ccc(N6CCN(CCN(C)C)CC6)cc5[nH]4)cc3[nH]2)cc1 , output reported MIC90.
60.4

* * *

Let's look at some compounds and their measured MBC.
Test system: Escherichia coli
Assay: Bactericidal activity against Escherichia coli ATCC 25922 by agar plating method
Assay type: functional
Number only, in µg/mL; omit the unit.

{"chem-smiles": "CCCN1CCN(c2ccc3nc(-c4ccc5nc(-c6ccc(OCC)cc6)[nH]c5c4)[nH]c3c2)CC1", "unit-text": "µg/mL", "MBC": 0.4}
{"chem-smiles": "COc1ccc(-c2nc3ccc(-c4nc5ccc(N6CCN(c7ccncc7)CC6)cc5[nH]4)cc3[nH]2)cc1OC", "unit-text": "µg/mL", "MBC": 4}

Give the reported value of MBC for this record: CCCN1CCN(c2ccc3nc(-c4ccc5nc(-c6ccc(OC)c(OC)c6)[nH]c5c4)[nH]c3c2)CC1
16

Note down MBC recorded for CCN1CCN(c2ccc3nc(-c4ccc5nc(-c6ccc(OC)c(OC)c6)[nH]c5c4)[nH]c3c2)CC1
32

* * *

Tested on: Escherichia coli
Assay: Bactericidal activity against tetracycline/trimethoprim-resistant Escherichia coli IST isolated from water source by agar plating method
assay-metric: MBC

{"chem-smiles": "CCCN1CCN(c2ccc3nc(-c4ccc5nc(-c6ccc(OC)c(OC)c6)[nH]c5c4)[nH]c3c2)CC1", "MBC": "16 µg/mL"}

Name the recorded MBC of the compound listed here: COc1ccc(-c2nc3ccc(-c4nc5ccc(N6CCN(c7ncccn7)CC6)cc5[nH]4)cc3[nH]2)cc1OC
32 µg/mL

Quote MBC reported for CCCN1CCN(c2ccc3nc(-c4ccc5nc(-c6ccc(OCC)cc6)[nH]c5c4)[nH]c3c2)CC1 please.
2 µg/mL

Supply measured MBC of COc1ccc(-c2nc3ccc(-c4nc5ccc(N6CCN(c7ccncc7)CC6)cc5[nH]4)cc3[nH]2)cc1OC in your reply.
1 µg/mL

Specify measured MBC for CCOc1ccc(-c2nc3ccc(-c4nc5ccc(N6CCN(CC)CC6)cc5[nH]4)cc3[nH]2)cc1 .
8 µg/mL

Consider the compound CCOc1ccc(-c2nc3ccc(-c4nc5ccc(N6CCN(CCN(C)C)CC6)cc5[nH]4)cc3[nH]2)cc1 and give its recorded MBC.
64 µg/mL

* * *

Test system: Escherichia coli
Experiment: Antibacterial activity against chloramphenicol/ampicillin/kanamycin/trimethoprim/ciprofloxacin/nalidixic acid-resistant Escherichia coli 151 assessed as growth inhibition after 18 to 24 hrs by broth microdilution method
Format: functional
assay-metric: MIC90 (mg/L)
State just the number; it will be interpreted in mg/L.

The examples below pair each entry with its known result.
{"chem-smiles": "CCCN1CCN(c2ccc3nc(-c4ccc5nc(-c6ccc(OC)c(OC)c6)[nH]c5c4)[nH]c3c2)CC1", "MIC90, mg/L": 15.1}
{"chem-smiles": "CCOc1ccc(-c2nc3ccc(-c4nc5ccc(N6CCN(CCN(C)C)CC6)cc5[nH]4)cc3[nH]2)cc1", "MIC90, mg/L": 61.6}
{"chem-smiles": "CCCN1CCN(c2ccc3nc(-c4ccc5nc(-c6ccc(OCC)cc6)[nH]c5c4)[nH]c3c2)CC1", "MIC90, mg/L": 1.7}
{"chem-smiles": "COc1ccc(-c2nc3ccc(-c4nc5ccc(N6CCN(c7ccncc7)CC6)cc5[nH]4)cc3[nH]2)cc1OC", "MIC90, mg/L": 1.7}
{"chem-smiles": "CCOc1ccc(-c2nc3ccc(-c4nc5ccc(N6CCN(CC)CC6)cc5[nH]4)cc3[nH]2)cc1", "MIC90, mg/L": 6.8}

Okay, now this compound:
Return MIC90 for the following compound: COc1ccc(-c2nc3ccc(-c4nc5ccc(N6CCN(c7ncccn7)CC6)cc5[nH]4)cc3[nH]2)cc1OC
30.4

* * *

Tested on: Escherichia coli
Test: Antibacterial activity against chloramphenicol/ampicillin/trimethoprim/ciprofloxacin/nalidixic acid-resistant Escherichia coli 59 assessed as growth inhibition after 18 to 24 hrs by broth microdilution method
Assay type: functional
Binary call on MIC90 with cut-off 8 µg/mL: strictly below means true (1), and equality or higher means false (0).

Past entries and their recorded results:
{"chem-smiles": "CCCN1CCN(c2ccc3nc(-c4ccc5nc(-c6ccc(OC)c(OC)c6)[nH]c5c4)[nH]c3c2)CC1", "assayed-system": "Escherichia coli", "qualitative-label": "true (1)"}
{"chem-smiles": "CCCN1CCN(c2ccc3nc(-c4ccc5nc(-c6ccc(OCC)cc6)[nH]c5c4)[nH]c3c2)CC1", "assayed-system": "Escherichia coli", "qualitative-label": "true (1)"}
{"chem-smiles": "CCOc1ccc(-c2nc3ccc(-c4nc5ccc(N6CCN(CCN(C)C)CC6)cc5[nH]4)cc3[nH]2)cc1", "assayed-system": "Escherichia coli", "qualitative-label": "false (0)"}
{"chem-smiles": "COc1ccc(-c2nc3ccc(-c4nc5ccc(N6CCN(c7ccncc7)CC6)cc5[nH]4)cc3[nH]2)cc1OC", "assayed-system": "Escherichia coli", "qualitative-label": "true (1)"}
{"chem-smiles": "CCOc1ccc(-c2nc3ccc(-c4nc5ccc(N6CCN(CC)CC6)cc5[nH]4)cc3[nH]2)cc1", "assayed-system": "Escherichia coli", "qualitative-label": "true (1)"}

Please turn your attention to the following entry.
Identify whether the compound COc1ccc(-c2nc3ccc(-c4nc5ccc(N6CCN(c7ncccn7)CC6)cc5[nH]4)cc3[nH]2)cc1OC records MIC90 below 8 µg/mL.
false (0)

* * *

Overview of recorded log10 MIC90 for various molecules
Test system: Escherichia coli
Assay: Antibacterial activity against Escherichia coli DH5[alpha] assessed as growth inhibition after 18 to 24 hrs by broth microdilution method
Type: functional
Reminder: these figures are log10 of reported MIC90, in µg/mL before transformation.

Before answering, review these 7 worked examples.
{"chem-smiles": "CCN1CCN(c2ccc3nc(-c4ccc5nc(-c6ccc(O)cc6)[nH]c5c4)[nH]c3c2)CC1", "reported-measurement": 2.08}
{"chem-smiles": "COc1ccc(-c2nc3ccc(-c4nc5ccc(N6CCN(c7ccncc7)CC6)cc5[nH]4)cc3[nH]2)cc1OC", "reported-measurement": 0.26}
{"chem-smiles": "CCOc1ccc(-c2nc3ccc(-c4nc5ccc(N6CCN(CC)CC6)cc5[nH]4)cc3[nH]2)cc1", "reported-measurement": -0.15}
{"chem-smiles": "CCOc1ccc(-c2nc3ccc(-c4nc5ccc(N6CCN(CCNC(=O)C(F)(F)F)CC6)cc5[nH]4)cc3[nH]2)cc1", "reported-measurement": 1.35}
{"chem-smiles": "CCCN1CCN(c2ccc3nc(-c4ccc5nc(-c6ccc(OCC)cc6)[nH]c5c4)[nH]c3c2)CC1", "reported-measurement": -0.10}
{"chem-smiles": "COc1ccc(-c2nc3ccc(-c4nc5ccc(N6CCN(c7ncccn7)CC6)cc5[nH]4)cc3[nH]2)cc1OC", "reported-measurement": 0.56}
{"chem-smiles": "CCOc1ccc(-c2nc3ccc(-c4nc5ccc(N6CCN(CCN(C)C)CC6)cc5[nH]4)cc3[nH]2)cc1", "reported-measurement": 1.16}

API: the following record is the query input.
For the molecule CCCN1CCN(c2ccc3nc(-c4ccc5nc(-c6ccc(OC)c(OC)c6)[nH]c5c4)[nH]c3c2)CC1 , give its measured log10 MIC90 value.
0.51

* * *

System: Escherichia coli
Assay: Bactericidal activity against ciprofloxacin-resistant Escherichia coli 72 by agar plating method
Type: functional
Measured log10(MBC) by item
Recall that a logarithmic scale is used here: each number is log10 of MBC in µg/mL.

{"chem-smiles": "COc1ccc(-c2nc3ccc(-c4nc5ccc(N6CCN(c7ncccn7)CC6)cc5[nH]4)cc3[nH]2)cc1OC", "log10(MBC)": 1.51}

Kindly indicate its recorded log10(MBC). Item: CCOc1ccc(-c2nc3ccc(-c4nc5ccc(N6CCN(CCN(C)C)CC6)cc5[nH]4)cc3[nH]2)cc1
1.81

Quick one: give measured log10(MBC) for CCCN1CCN(c2ccc3nc(-c4ccc5nc(-c6ccc(OC)c(OC)c6)[nH]c5c4)[nH]c3c2)CC1
0.60

Please supply the value of reported log10(MBC) for the item CCOc1ccc(-c2nc3ccc(-c4nc5ccc(N6CCN(CC)CC6)cc5[nH]4)cc3[nH]2)cc1
0.90

Return log10(MBC) for the following compound: COc1ccc(-c2nc3ccc(-c4nc5ccc(N6CCN(c7ccncc7)CC6)cc5[nH]4)cc3[nH]2)cc1OC
0.30

Could you please provide reported log10(MBC) for CCCN1CCN(c2ccc3nc(-c4ccc5nc(-c6ccc(OCC)cc6)[nH]c5c4)[nH]c3c2)CC1 ? Thanks!
0.60
